Quick list: log10(TGI) per entry.
- Tested on: SK-MEL-5 melanoma
- ASSAY METHOD TEXT: NCI tumour cell line growth inhibition, 48 h
Field: value | Transform: log10 | Quantity: TGI | Unit: µM

{"columns": ["MOLECULE", "TARGET OR TEST SYSTEM", "EXPERIMENTAL RESULT"],
 "data": [
  ["COC(=O)/C=C/c1cc(OC(C)=O)c2c(c1)C(C(=O)OC)C(c1ccc(OC(C)=O)c(OC(C)=O)c1)O2 (stereo unspecified)", "SK-MEL-5 melanoma", 0.30],
  ["N#Cc1sc2c(c1OC(=O)c1ccc(C(F)(F)F)cc1)c(=O)n(-c1ccccc1)c(=S)n2-c1ccccc1", "SK-MEL-5 melanoma", 1.79],
  ["COc1nc(=O)n(C2C=CC(=O)O2)cc1F (stereo unspecified)", "SK-MEL-5 melanoma", 1.27],
  ["O=C(CCSC1=NCCCN1)c1ccc(F)cc1", "SK-MEL-5 melanoma", 1.56],
  ["COc1cccc2c1OC(c1cccc3ccccc13)C([N+](=O)[O-])=C2 (stereo unspecified)", "SK-MEL-5 melanoma", 0.47],
  ["OC(C#CCN1CCCC1)(c1ccccc1)c1ccccc1Cl (stereo unspecified)", "SK-MEL-5 melanoma", 1.50],
  ["CCOC(=O)c1c(C)c2c(n1Cc1ccccc1)CSCC2=O", "SK-MEL-5 melanoma", 1.38],
  ["CC(C)C1CN(C(=O)OCc2ccccc2)C2N1C(=O)C2(C)OCc1ccccc1 (stereo unspecified)", "SK-MEL-5 melanoma", 1.47],
  ["CN(C)CCNC(=O)Cc1ccccc1Nc1c(Cl)cccc1Cl", "SK-MEL-5 melanoma", 1.48],
  ["CC(C)N1CCN(c2ccc(OCC3COC(Cn4cncn4)(c4ccc(Cl)cc4Cl)O3)cc2)CC1 (stereo unspecified)", "SK-MEL-5 melanoma", 0.69]
]}

Data request, read-out log10(TGI), for O=C1C(=Nc2ccc(Nc3ccccc3)cc2)Oc2ccccc21
1.21

Same again, this time with CCCCCCCCSC1=C(Cl)C(=O)C(OC)=C(OC)C1=O
1.27
